These entries and their values trace back to ChEMBL document CHEMBL1201862.

Test system: TK-10
PROCEDURE_DETAILS: NCI tumour cell line growth inhibition, 48 h
Activity calls are given as the source filed them. Cut-off read from the data, not from the text of the source: active = GI50 up to about 1.1 µM and inactive = higher.
Classes to choose from: yes for active, no for inactive

Use the examples below as a reference point.
Ask: Check the results log: what was the call for `COc1ccccc1NC(=O)C1=C(C)NC(C)=C(C(=O)Nc2ccccc2OC)C1c1ccc(C(C)C)cc1` ?
Result: no

Ask: Check the results log: what was the call for `O=C1CCc2ccc(O)c(c2)Oc2ccc(cc2)[C@@H]2O[C@@H]2CO1` ?
Result: no

Ask: Check the results log: what was the call for `S=C(NCCc1ccccn1)N/N=C/c1ccccn1` ?
Result: yes

Ask: Check the results log: what was the call for `CSC1=N/C(=C\c2ccc(Cl)cc2)C(=O)N1CN1CCCCC1` ?
Result: no

Ask: Check the results log: what was the call for `O=C(c1cccs1)N1CCc2ccccc2C1` ?
Result: no

Continuing:
Ask: Check the results log: what was the call for `CCc1cccc(C)c1NC(=O)C1=C(C)NC(C)=C(C(=O)Nc2c(C)cccc2CC)C1c1ccc2c(c1)OCO2` ?
Result: no

====

System: NCI-H226
PROCEDURE_DETAILS: NCI tumour cell line growth inhibition, 48 h
The source made the active and inactive calls. Cut-off read from the data, not from the text of the source: active = GI50 up to about 1.1 µM and inactive = higher.
molecules and their reported GI50

GET /value?item= C=CC(Cl)(CBr)CCC(Br)C(C)(C)Cl (centres undefined) &field=GI50 returns > 100 µM (inactive)

GET /value?item= `CC(=O)OCCOCNC(=S)N/N=C/c1ccc([N+](=O)[O-])o1` &field=GI50 returns 98.4 µM (inactive)

GET /value?item= COCC1OC(OC2OCC3OC4(OCC(O)(C(C)OC)C5OCOC54)OC3C2OC)C(OC)C(O)C1OC1OC(C)C(OC)C(OC2OC(C)C3OC4(CC(O)C(OC5CC(OC6CC(C)([N+](=O)[O-])C(OC)C(C)O6)C(OC(=O)c6c(C)c(Cl)c(O)c(Cl)c6OC)C(C)O5)C(C)O4)OC3(C)C2O)C1O (centres undefined) &field=GI50 returns > 100 µM (inactive)

GET /value?item= `O=c1onc2c3ccccc3ncn12` &field=GI50 returns > 100 µM (inactive)

====

System: UACC-257
PROCEDURE_DETAILS: NCI tumour cell line growth inhibition, 48 h
Calls of active or inactive are those of the source. No stated cut-off is given here; in the data, active = GI50 up to about 1.1 µM and inactive = higher.
compounds and their reported GI50

GET /value?item= `N#Cc1nc(CCN2C(=O)c3ccccc3C2=O)oc1N` &field=GI50 returns > 100 µM (inactive)

GET /value?item= `COc1cc2nc(-c3ccccc3F)nc(O)c2cc1OC` &field=GI50 returns > 100 µM (inactive)

GET /value?item= `O=c1cc(CBr)c2ccc(O)cc2o1` &field=GI50 returns 64.4 µM (inactive)

GET /value?item= `O=S1(=O)OCCOS(=O)(=O)C1S(=O)(=O)c1cccc2ccccc12` &field=GI50 returns > 100 µM (inactive)

GET /value?item= CC(=O)NC1C(O)CC(OCCCSCCN)(C(=O)O)OC1C(O)C(O)CO (stereo unspecified) &field=GI50 returns > 100 µM (inactive)

Continuing:
GET /value?item= COc1ccc2c(c1)CN1CCc3c(cc(OC)c(OC)c3OC)C1C2 (stereo unspecified) &field=GI50 returns > 100 µM (inactive)

GET /value?item= `CC(=O)c1c(C)[n+]([O-])c2cc(C)c(C)cc2[n+]1[O-]` &field=GI50 returns > 100 µM (inactive)

GET /value?item= `O=C(/C=C/c1ccc(O)c(O)c1)OCCc1ccc2ccccc2c1` &field=GI50 returns 11 µM (inactive)
